tested on: PPARg:RXRa 270nM:90nM, anti-RXR (NR concentration 270 nM, RXRa partner concentration 90 nM); assay: PBM binding z-score (relative to random genomic background probes); higher = stronger binding; sequences stand for … in GC…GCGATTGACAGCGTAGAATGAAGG
# key: entry, value: PBM binding z-score

[
  {
    "entry sequence": "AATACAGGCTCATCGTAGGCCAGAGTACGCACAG",
    "PBM binding z-score": -0.256
  },
  {
    "entry sequence": "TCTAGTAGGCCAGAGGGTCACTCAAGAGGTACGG",
    "PBM binding z-score": 5.3
  },
  {
    "entry sequence": "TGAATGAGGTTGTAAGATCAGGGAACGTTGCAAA",
    "PBM binding z-score": 0.349
  },
  {
    "entry sequence": "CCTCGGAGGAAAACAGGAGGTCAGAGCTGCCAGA",
    "PBM binding z-score": -0.0182
  },
  {
    "entry sequence": "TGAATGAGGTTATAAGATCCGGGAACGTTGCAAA",
    "PBM binding z-score": 1.33
  },
  {
    "entry sequence": "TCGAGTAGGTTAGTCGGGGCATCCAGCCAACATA",
    "PBM binding z-score": 0.685
  },
  {
    "entry sequence": "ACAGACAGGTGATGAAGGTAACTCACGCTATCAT",
    "PBM binding z-score": 0.393
  },
  {
    "entry sequence": "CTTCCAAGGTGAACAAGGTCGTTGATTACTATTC",
    "PBM binding z-score": 1.31
  },
  {
    "entry sequence": "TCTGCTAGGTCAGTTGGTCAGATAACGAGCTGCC",
    "PBM binding z-score": 1.72
  },
  {
    "entry sequence": "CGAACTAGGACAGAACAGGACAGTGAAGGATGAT",
    "PBM binding z-score": 0.13
  },
  {
    "entry sequence": "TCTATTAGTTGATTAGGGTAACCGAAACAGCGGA",
    "PBM binding z-score": 1.86
  },
  {
    "entry sequence": "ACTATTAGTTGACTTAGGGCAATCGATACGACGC",
    "PBM binding z-score": 0.195
  },
  {
    "entry sequence": "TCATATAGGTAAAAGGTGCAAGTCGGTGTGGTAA",
    "PBM binding z-score": 5.97
  },
  {
    "entry sequence": "TCTTGTAGATCAATAGAGGTTAAGGAAGTGCGCT",
    "PBM binding z-score": 1.99
  },
  {
    "entry sequence": "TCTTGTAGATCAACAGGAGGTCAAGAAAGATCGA",
    "PBM binding z-score": 2.25
  },
  {
    "entry sequence": "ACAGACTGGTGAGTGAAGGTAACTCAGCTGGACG",
    "PBM binding z-score": -0.5
  },
  {
    "entry sequence": "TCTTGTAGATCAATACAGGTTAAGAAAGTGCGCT",
    "PBM binding z-score": 1.49
  },
  {
    "entry sequence": "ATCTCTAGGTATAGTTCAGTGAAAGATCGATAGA",
    "PBM binding z-score": 1.55
  },
  {
    "entry sequence": "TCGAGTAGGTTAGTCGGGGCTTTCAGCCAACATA",
    "PBM binding z-score": 0.148
  },
  {
    "entry sequence": "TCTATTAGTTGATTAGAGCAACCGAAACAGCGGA",
    "PBM binding z-score": 1.56
  },
  {
    "entry sequence": "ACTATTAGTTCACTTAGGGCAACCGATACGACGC",
    "PBM binding z-score": 0.566
  },
  {
    "entry sequence": "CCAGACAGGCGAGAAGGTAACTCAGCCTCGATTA",
    "PBM binding z-score": -0.949
  },
  {
    "entry sequence": "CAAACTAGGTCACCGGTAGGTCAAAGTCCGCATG",
    "PBM binding z-score": 7.44
  },
  {
    "entry sequence": "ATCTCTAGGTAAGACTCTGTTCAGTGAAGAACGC",
    "PBM binding z-score": 0.133
  },
  {
    "entry sequence": "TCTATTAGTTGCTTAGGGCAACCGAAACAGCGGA",
    "PBM binding z-score": 1.87
  },
  {
    "entry sequence": "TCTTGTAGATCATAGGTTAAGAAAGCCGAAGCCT",
    "PBM binding z-score": 5.93
  }
]

Ref: the supplement of paper PMC6555819
